- Species on record: Rattus norvegicus
- Method: Open TG-GATES - Regimen: Single
- Type: toxicity, organism-based, Sprague-Dawley
- Set-up: regimen Single, gender Male, age 6 weeks
- Stated Conditions: in vivo, po, 300 mg/kg, 24 h, tissue Plasma, route gavage, dose level Middle
This listing pairs compounds with measured ALP.
State the value with its unit after it.

compound="COc1ccc2[nH]c([S+]([O-])Cc3ncc(C)c(OC)c3C)nc2c1 (centres undefined)" reported_endpoint=ALP result="1087 IU/L"
compound=NC(N)=Nc1nc(CSCCC(N)=NS(N)(=O)=O)cs1 reported_endpoint=ALP result="1146.8 IU/L"
compound="CCOC(=O)CCC(=O)O[C@H]1[C@H](O[C@@H]2[C@@H](C)[C@H](O[C@H]3C[C@@](C)(OC)[C@@H](O)[C@H](C)O3)[C@@H](C)C(=O)O[C@H](CC)[C@@](C)(O)[C@H](O)[C@@H](C)C(=O)[C@H](C)C[C@@]2(C)O)O[C@H](C)C[C@@H]1N(C)C [ERYTHROMYCIN ETHYLSUCCINATE]" reported_endpoint=ALP result="1484 IU/L"

Query block: Answer with reported ALP of `COC1=CC(=O)C[C@@H](C)[C@]12Oc1c(Cl)c(OC)cc(OC)c1C2=O`
Result block: 958.6 IU/L

---

- Species: Rattus norvegicus
- Method: Open TG-GATES - Regimen: Single
- Format: toxicity, organism-based, Sprague-Dawley
- Set-up: regimen Single, gender Male, age 6 weeks
- Stated Conditions: in vivo, po, 100 mg/kg, 6 h, tissue Blood, route gavage, dose level Low
This listing pairs molecules with measured RBC.

See these solved cases before continuing.
molecule=COC1=CC(=O)C[C@@H](C)[C@]12Oc1c(Cl)c(OC)cc(OC)c1C2=O result="604.8 x10_4/ul"
molecule="CCOC(=O)CCC(=O)O[C@H]1[C@H](O[C@@H]2[C@@H](C)[C@H](O[C@H]3C[C@@](C)(OC)[C@@H](O)[C@H](C)O3)[C@@H](C)C(=O)O[C@H](CC)[C@@](C)(O)[C@H](O)[C@@H](C)C(=O)[C@H](C)C[C@@]2(C)O)O[C@H](C)C[C@@H]1N(C)C [ERYTHROMYCIN ETHYLSUCCINATE]" result="628 x10_4/ul"
molecule="COc1ccc2[nH]c([S+]([O-])Cc3ncc(C)c(OC)c3C)nc2c1 (centres undefined)" result="626.4 x10_4/ul"

Query block: Answer with reported RBC of `NC(N)=Nc1nc(CSCCC(N)=NS(N)(=O)=O)cs1`
Result block: 602.6 x10_4/ul

---

- Species: Rattus norvegicus
- Method: Open TG-GATES - Regimen: Daily Repeat
- Assay type: toxicity, organism-based, Sprague-Dawley
- Design: regimen Daily Repeat, gender Male, age 6 weeks
- Stated Conditions: in vivo, po, 0 mg/kg, […], tissue Plasma, route gavage, dose level Control, time 28 day
Reported Endpoint: TG (mg/dL)
Quick reminder: number only, in mg/dL, skip the unit.

See these solved cases before continuing.
molecule="O=C(CCCN1CCC(O)(c2ccc(Cl)cc2)CC1)c1ccc(F)cc1 [HALOPERIDOL]" reported_endpoint=TG numeric_readout=176.2
molecule="CCCNC(=O)NS(=O)(=O)c1ccc(Cl)cc1 [CHLORPROPAMIDE]" reported_endpoint=TG numeric_readout=122.6
molecule="CCOC(=O)CCC(=O)O[C@H]1[C@H](O[C@@H]2[C@@H](C)[C@H](O[C@H]3C[C@@](C)(OC)[C@@H](O)[C@H](C)O3)[C@@H](C)C(=O)O[C@H](CC)[C@@](C)(O)[C@H](O)[C@@H](C)C(=O)[C@H](C)C[C@@]2(C)O)O[C@H](C)C[C@@H]1N(C)C [ERYTHROMYCIN ETHYLSUCCINATE]" reported_endpoint=TG numeric_readout=118.4
molecule="NC(N)=Nc1nc(CSCCC(N)=NS(N)(=O)=O)cs1 [FAMOTIDINE]" reported_endpoint=TG numeric_readout=82.8
molecule="CC1=C(/C=C/C(C)=C/C=C/C(C)=C/CO)C(C)(C)CCC1 [RETINOL]" reported_endpoint=TG numeric_readout=100.8
molecule="NNC(=O)c1ccncc1 [ISONIAZID]" reported_endpoint=TG numeric_readout=125.6

Query block: Answer with reported TG of `CN(C)CCN(Cc1cccs1)c1ccccn1`
Result block: 103

Query block: Answer with reported TG of COC1=CC(=O)C[C@@H](C)[C@]12Oc1c(Cl)c(OC)cc(OC)c1C2=O [GRISEOFULVIN]
Result block: 65.4

---

This listing pairs molecules with measured TP.
- Species: Rattus norvegicus
- Method: Open TG-GATES - Regimen: Single
- Type: toxicity, organism-based, Sprague-Dawley
- Parameters: regimen Single, gender Male, age 6 weeks
- Stated Conditions: in vivo, po, 300 mg/kg, 3 h, tissue Plasma, route gavage, dose level Middle
Quick reminder: number only, in g/dL, skip the unit.

molecule="CCOC(=O)CCC(=O)O[C@H]1[C@H](O[C@@H]2[C@@H](C)[C@H](O[C@H]3C[C@@](C)(OC)[C@@H](O)[C@H](C)O3)[C@@H](C)C(=O)O[C@H](CC)[C@@](C)(O)[C@H](O)[C@@H](C)C(=O)[C@H](C)C[C@@]2(C)O)O[C@H](C)C[C@@H]1N(C)C [ERYTHROMYCIN ETHYLSUCCINATE]" reported_endpoint=TP numeric_readout=5.3
molecule="NC(N)=Nc1nc(CSCCC(N)=NS(N)(=O)=O)cs1 [FAMOTIDINE]" reported_endpoint=TP numeric_readout=5.5
molecule="COc1ccc2[nH]c([S+]([O-])Cc3ncc(C)c(OC)c3C)nc2c1 (centres undefined) [OMEPRAZOLE]" reported_endpoint=TP numeric_readout=5.4

Attention now turns to another entry.
Query block: Answer with reported TP of COC1=CC(=O)C[C@@H](C)[C@]12Oc1c(Cl)c(OC)cc(OC)c1C2=O [GRISEOFULVIN]
Result block: 5.3

---

- Organism: Rattus norvegicus
- Method: Open TG-GATES - Regimen: Single
- Assay type: toxicity, organism-based, Sprague-Dawley
- Design: regimen Single, gender Male, age 6 weeks
- Stated Conditions: in vivo, po, 1000 mg/kg, 9 h, tissue Plasma, route gavage, dose level High
This listing pairs compounds with measured RALB.
Quick reminder: number only, in g/dL, skip the unit.

compound=COC1=CC(=O)C[C@@H](C)[C@]12Oc1c(Cl)c(OC)cc(OC)c1C2=O reported_endpoint=RALB numeric_readout=3.5
compound=NC(N)=Nc1nc(CSCCC(N)=NS(N)(=O)=O)cs1 reported_endpoint=RALB numeric_readout=3.3

Query block: Answer with reported RALB of COc1ccc2[nH]c([S+]([O-])Cc3ncc(C)c(OC)c3C)nc2c1 (stereo not given)
Result block: 3.5

Query block: Answer with reported RALB of CC(C)OC(=O)C(C)(C)Oc1ccc(C(=O)c2ccc(Cl)cc2)cc1 [FENOFIBRATE]
Result block: 2.5

Query block: Answer with reported RALB of CCOC(=O)CCC(=O)O[C@H]1[C@H](O[C@@H]2[C@@H](C)[C@H](O[C@H]3C[C@@](C)(OC)[C@@H](O)[C@H](C)O3)[C@@H](C)C(=O)O[C@H](CC)[C@@](C)(O)[C@H](O)[C@@H](C)C(=O)[C@H](C)C[C@@]2(C)O)O[C@H](C)C[C@@H]1N(C)C [ERYTHROMYCIN ETHYLSUCCINATE]
Result block: 3

---

- Organism: Rattus norvegicus
- Method: Open TG-GATES - Regimen: Daily Repeat
- Type: toxicity, organism-based, Sprague-Dawley
- Set-up: regimen Daily Repeat, gender Male, age 6 weeks
- Stated Conditions: in vivo, po, 0 mg/kg, 72 h, tissue Kidney, route gavage, dose level Control, time 3 day
Reported Endpoint: KIDNEY_TOTAL (g)
Quick reminder: number only, in g, skip the unit.

compound="CCOC(=O)CCC(=O)O[C@H]1[C@H](O[C@@H]2[C@@H](C)[C@H](O[C@H]3C[C@@](C)(OC)[C@@H](O)[C@H](C)O3)[C@@H](C)C(=O)O[C@H](CC)[C@@](C)(O)[C@H](O)[C@@H](C)C(=O)[C@H](C)C[C@@]2(C)O)O[C@H](C)C[C@@H]1N(C)C [ERYTHROMYCIN ETHYLSUCCINATE]" value_unit=g numeric_readout=2.1
compound=CN(C)CCN(Cc1cccs1)c1ccccn1 value_unit=g numeric_readout=2
compound="CC1=C(/C=C/C(C)=C/C=C/C(C)=C/CO)C(C)(C)CCC1 [RETINOL]" value_unit=g numeric_readout=2.1
compound="NNC(=O)c1ccncc1 [ISONIAZID]" value_unit=g numeric_readout=1.9
compound="NC(N)=Nc1nc(CSCCC(N)=NS(N)(=O)=O)cs1 [FAMOTIDINE]" value_unit=g numeric_readout=2
compound="CCOc1ccc(NC(=O)CC(C)O)cc1 (stereo not drawn) [BUCETIN]" value_unit=g numeric_readout=2.1

Query block: Answer with reported KIDNEY_TOTAL of CC(C)OC(=O)C(C)(C)Oc1ccc(C(=O)c2ccc(Cl)cc2)cc1 [FENOFIBRATE]
Result block: 1.9

Query block: Answer with reported KIDNEY_TOTAL of CCCNC(=O)NS(=O)(=O)c1ccc(Cl)cc1 [CHLORPROPAMIDE]
Result block: 1.9
